So I've got a bunch of molecules here, and I need their max response values.
SYSTEM_UNDER_TEST: Phosphatidylinositol 5-phosphate 4-kinase type-2 alpha (Homo sapiens)
EXPERIMENTAL_DETAILS: qHTS for Inhibitors of phosphatidylinositol 5-phosphate 4-kinase (PI5P4K); further: value at the top dose of about 77 µM; on the % scale 0 is the no-effect control and ±100 the full control effect
EXPERIMENTAL_CONDITIONS: PI5P4Kalpha enzyme, ADP-Glo luminescence, 60 min; hits give low values
The campaign covered roughly 330,000 compounds. About 4,100 (1.2%) were called active. Another 2% or so got no clear call; they are omitted. Only a selection was taken, and actives are over-represented in it overall.
Answer format: numeric, % implied, no suffix.

*Q* State recorded max response with Phosphatidylinositol 5-phosphate 4-kinase type-2 alpha (Homo sapiens), entry CC1(C(=O)Nc2cccc3c2CCCC3)CCN1C(=O)C1(c2ccccc2)CC1 (centres undefined) , no comment.
*A* 20.1

*Q* State recorded max response with Phosphatidylinositol 5-phosphate 4-kinase type-2 alpha (Homo sapiens), entry COc1cc(O)c2c(=O)c3c(O)c(O)ccc3oc2c1OC , no comment.
*A* -7.12

*Q* State recorded max response with Phosphatidylinositol 5-phosphate 4-kinase type-2 alpha (Homo sapiens), entry Cc1ccc([C@H]2N[C@]3(CCCN(CC4CCCCC4)C3=O)[C@H]3C(=O)N(Cc4ccccc4)C(=O)[C@@H]23)cc1 , no comment.
*A* -7.84

*Q* State recorded max response with Phosphatidylinositol 5-phosphate 4-kinase type-2 alpha (Homo sapiens), entry CCc1c(-c2ccc(F)cc2)ncn1Cc1cccc(-c2ccccc2)c1 , no comment.
*A* -9.99

*Q* State recorded max response with Phosphatidylinositol 5-phosphate 4-kinase type-2 alpha (Homo sapiens), entry COc1c(O)cc2oc(-c3ccc(O)c(O)c3)cc(=O)c2c1O , no comment.
*A* -59.1

*Q* State recorded max response with Phosphatidylinositol 5-phosphate 4-kinase type-2 alpha (Homo sapiens), entry O=C(NC(c1ccc(-c2ccccc2)cc1)c1cnccn1)C1CCN(CCOc2ccc(Cl)cc2Cl)CC1 (centres undefined) , no comment.
*A* 31

*Q* State recorded max response with Phosphatidylinositol 5-phosphate 4-kinase type-2 alpha (Homo sapiens), entry CC1(C)OC(=O)C2=C(C[C@@H](C3CCCCC3)O[C@@H]2c2ccc(Cl)cc2)O1 , no comment.
*A* 10.9

*Q* State recorded max response with Phosphatidylinositol 5-phosphate 4-kinase type-2 alpha (Homo sapiens), entry CC(C)NC(=O)C1(C)CCCCN1Cc1cccc(C(F)(F)F)c1 (centres undefined) , no comment.
*A* 22.3

*Q* State recorded max response with Phosphatidylinositol 5-phosphate 4-kinase type-2 alpha (Homo sapiens), entry COc1ccc(-c2cc(=O)c3c(O)cc(O[C@@H]4O[C@H](CO[C@@H]5O[C@@H](C)[C@H](O)[C@@H](O)[C@H]5O)[C@@H](O)[C@H](O)[C@H]4O)cc3o2)cc1O , no comment.
*A* 0.0751

###

SYSTEM_UNDER_TEST: Phosphatidylinositol 5-phosphate 4-kinase type-2 alpha (Homo sapiens) (UniProt P48426)
Sequence (P48426 whole entry, looked up): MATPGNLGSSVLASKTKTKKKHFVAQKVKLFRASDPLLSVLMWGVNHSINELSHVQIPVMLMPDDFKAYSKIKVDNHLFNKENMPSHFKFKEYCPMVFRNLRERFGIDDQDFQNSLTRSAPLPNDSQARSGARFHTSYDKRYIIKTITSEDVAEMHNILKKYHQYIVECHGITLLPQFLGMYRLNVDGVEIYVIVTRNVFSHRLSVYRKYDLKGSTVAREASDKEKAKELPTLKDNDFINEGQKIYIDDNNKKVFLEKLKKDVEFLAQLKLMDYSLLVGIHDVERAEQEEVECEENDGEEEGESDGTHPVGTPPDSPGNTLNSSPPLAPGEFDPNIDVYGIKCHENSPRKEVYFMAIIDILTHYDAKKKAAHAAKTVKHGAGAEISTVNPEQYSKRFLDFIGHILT
EXPERIMENTAL_DETAILS: qHTS for Inhibitors of phosphatidylinositol 5-phosphate 4-kinase (PI5P4K); further: value at the top dose of about 77 µM; on the % scale 0 is the no-effect control and ±100 the full control effect
EXPERIMENTAL_CONDITIONS: PI5P4Kalpha enzyme, ADP-Glo luminescence, 60 min; hits give low values
Description: In addition to finding PI5P, we discovered the type II phosphatidylinositol 5-phosphate 4-kinase (PI5P4K) family (alpha, beta, gamma isoforms) that catalyze the conversion of PI5P to PI(4,5)P2. Alternatively, PI(4,5)P2 can also be synthesized through phosphatidylinositol-4-phosphate (PI4P) by the type I phosphatidylinositol 4-phosphate 5-kinases (PI4P5K). […]
About 4,100 (1.2%) of roughly 330,000 compounds were called active. Roughly 2% stayed inconclusive and do not appear here. This is one part of a sample in which actives are shown more often than they occur.
PROPERTY_NAME: max response (%)
Answer format: numeric, % implied, no suffix.

*Q* Give reported max response value for CCCOc1ccc(F)cc1-c1cc(C(=O)Nc2ccc(F)cc2)[nH]n1
*A* 0.345

*Q* Give reported max response value for OC(c1ccccc1)(c1ccccc1)C1CCN(CCCOc2ccccc2)CC1
*A* -3.47

*Q* Give reported max response value for CCCCn1nnnc1C(c1ccccc1)N1CCN(c2ccccc2OC)CC1 (stereo unspecified)
*A* 1.03

*Q* Give reported max response value for O=C(NCc1ccccc1)C1c2ccccc2OCC(=O)N1CCCN1CCOCC1 (stereo unspecified)
*A* 0.215

*Q* Give reported max response value for OC(c1cc(Cl)cc(Cl)c1)c1ncc(-c2ccccc2C(F)(F)F)[nH]1 (stereo unspecified)
*A* 14.3

*Q* Give reported max response value for CCc1nnc(NS(=O)(=O)c2ccc(NC(=O)c3cccc(OC(F)(F)C(F)F)c3)cc2)s1
*A* -19.6

*Q* Give reported max response value for COc1ccc(-n2nnnc2-c2nc3ccccc3s2)cc1
*A* 11.9

*Q* Give reported max response value for CCC(c1nnnn1Cc1ccco1)N(Cc1cc2cc(OC)ccc2[nH]c1=O)C1CCCCC1 (stereo unspecified)
*A* -18.4

*Q* Give reported max response value for N#Cc1c(-c2ccc(Cl)cc2)c2c([nH]c1=S)CCCC2
*A* -61.4

*Q* Give reported max response value for CCc1c(C)[nH]c(=S)c(C#N)c1C
*A* -67.1

*Q* Give reported max response value for CCCNC(=O)C1(C)CCN1C(=O)Cc1ccc(-c2ccccc2)cc1 (stereo unspecified)
*A* -2.28

*Q* Give reported max response value for CCC(C(=O)NCc1ccccc1)n1c(Cc2cc(F)cc(F)c2)nc2ccccc21 (stereo unspecified)
*A* 0.77

*Q* Give reported max response value for CCC(c1nnnn1Cc1ccco1)N(CCc1ccccc1)Cc1cc2cccc(C)c2[nH]c1=O (stereo unspecified)
*A* -1.38

*Q* Give reported max response value for CC(=O)N(CC1CCCO1)C1(C(=O)NC2CCCC2)CCCCC1 (stereo unspecified)
*A* 8.44

*Q* Give reported max response value for CC(C)Nc1nnc(SCC(=O)c2c[nH]c3ccccc23)s1
*A* -3.57

*Q* Give reported max response value for COc1ccc(C(=O)N2CCCCC2c2cc(C(=O)Nc3ccc(F)c(Cl)c3)no2)cc1 (stereo unspecified)
*A* -6.25

*Q* Give reported max response value for CCOC(=O)[C@]12CCCC=C1N(CCC1=CCCCC1)C(=O)[C@H](CC(=O)NCCCOC)C2
*A* -1.91

*Q* Give reported max response value for CC(C)c1ccc(Nc2nnc(SCC(=O)c3nnc(-c4ccccc4)o3)s2)cc1
*A* -79.1

*Q* Give reported max response value for CCc1nnc(NS(=O)(=O)c2ccc(NC(=S)NC(=O)/C=C/c3cccs3)cc2)s1
*A* -51.8

*Q* Give reported max response value for COC(=O)c1ccc2nc(-c3cccc(Br)c3)c(Cc3ccccc3C(F)(F)F)n2c1
*A* 4.18

*Q* Give reported max response value for N#Cc1c2c(c(-c3ccccc3)[nH]c1=O)CCCC2
*A* -4.1
